Molecular target: Syt1 C2B (Mus musculus, UniProt P46096)
Sequence (P46096 271-421): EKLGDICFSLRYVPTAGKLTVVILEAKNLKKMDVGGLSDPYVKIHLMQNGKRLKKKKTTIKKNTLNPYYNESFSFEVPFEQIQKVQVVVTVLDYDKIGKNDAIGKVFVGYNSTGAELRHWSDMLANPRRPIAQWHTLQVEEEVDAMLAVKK
Experiment: […]-1H HSQC NMR titration, global fit of chemical shifts, single-site model
readout_type: pKd
pKd (log units): -log10 of the concentration in mol/L.

For the compound CCCC(=O)OC[C@H](COP(=O)(O)O[C@@H]1[C@H](O)[C@H](O)[C@@H](OP(=O)(O)O)[C@H](OP(=O)(O)O)[C@H]1O)OC(=O)CCC [di-C4-PtdIns(4,5)P2] , the measured pKd on Syt1 C2B (Mus musculus, UniProt P46096) was 3.67
